- TARGET SYSTEM: Hsp82 (Saccharomyces cerevisiae)
- Sequence (P02829 whole entry): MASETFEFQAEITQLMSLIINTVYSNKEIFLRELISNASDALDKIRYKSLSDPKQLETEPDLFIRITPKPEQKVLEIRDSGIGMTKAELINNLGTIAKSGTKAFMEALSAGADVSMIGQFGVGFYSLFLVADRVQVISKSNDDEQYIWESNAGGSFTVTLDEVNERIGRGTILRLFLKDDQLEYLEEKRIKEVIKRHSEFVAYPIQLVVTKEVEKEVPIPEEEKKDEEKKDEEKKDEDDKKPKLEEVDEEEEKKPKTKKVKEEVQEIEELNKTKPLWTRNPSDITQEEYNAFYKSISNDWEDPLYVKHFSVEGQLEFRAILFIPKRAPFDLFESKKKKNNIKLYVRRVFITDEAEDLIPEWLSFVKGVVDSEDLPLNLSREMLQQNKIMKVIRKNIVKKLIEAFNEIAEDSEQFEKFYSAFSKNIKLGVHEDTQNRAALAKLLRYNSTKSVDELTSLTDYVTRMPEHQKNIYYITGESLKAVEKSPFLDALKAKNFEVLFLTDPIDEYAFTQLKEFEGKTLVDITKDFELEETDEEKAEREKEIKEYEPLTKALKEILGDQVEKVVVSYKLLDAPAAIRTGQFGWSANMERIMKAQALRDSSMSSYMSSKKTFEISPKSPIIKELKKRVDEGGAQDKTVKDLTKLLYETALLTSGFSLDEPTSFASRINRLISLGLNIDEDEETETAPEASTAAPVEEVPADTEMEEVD
- METHOD: PK/LDH enzyme coupling test of the ATPase activity of Hsp82 (NADH decrease at 340 nm)
- Type: biochemical
- COND: 1 μM Hsp82, 250 μM ATP, 37° C., pyruvate kinase/lactate dehydrogenase coupling, read-out: Hsp82 ATPase IC50
pIC50: −log10 of the molar value.
ASSAY METRIC: pIC50

COMPOUND: O=C(NC1c2ccccc2-c2c(-c3nc4ccncc4[nH]3)cccc21)c1ccnc(CO)c1 (racemic)
TARGET SYSTEM: Hsp82 (Saccharomyces cerevisiae)
RESULT: 5.00 to 6.00

Inquiry: Name the value of pIC50 reported for O=C(NC1c2ccccc2-c2c(-c3nc4cnccc4[nH]3)cccc21)c1ccc[n+]([O-])c1 (racemic) when tested on Hsp82 (Saccharomyces cerevisiae).
Reply text: 5.00 to 6.00

Inquiry: Name the value of pIC50 reported for Cc1cnccc1C(=O)NC1c2ccccc2-c2c(-c3nc4ccncc4[nH]3)cccc21 (racemic) when tested on Hsp82 (Saccharomyces cerevisiae).
Reply text: 5.00 to 6.00

Inquiry: Name the value of pIC50 reported for C[C@@H](C(=O)N[C@@H]1c2ccccc2-c2c(-c3nc4ccncc4[nH]3)cccc21)c1cccnc1 (racemic) when tested on Hsp82 (Saccharomyces cerevisiae).
Reply text: 4.00 to 5.00

Inquiry: Name the value of pIC50 reported for NC(=O)NCC(=O)NC1c2ccccc2-c2c(-c3nc4cnccc4[nH]3)cccc21 (racemic) when tested on Hsp82 (Saccharomyces cerevisiae).
Reply text: 5.00 to 6.00

Inquiry: Name the value of pIC50 reported for `c1ccc2c(c1)Cc1cccc(-c3nc4cnccc4[nH]3)c1-2` when tested on Hsp82 (Saccharomyces cerevisiae).
Reply text: 4.00 to 5.00

Inquiry: Name the value of pIC50 reported for Nc1nccc(C(=O)NC2c3ccccc3-c3c(-c4nc5ccncc5[nH]4)cccc32)n1 (centres unmarked) when tested on Hsp82 (Saccharomyces cerevisiae).
Reply text: > 6.00

Inquiry: Name the value of pIC50 reported for O=C(NC1c2ccccc2-c2c(-c3nc4ccncc4[nH]3)cccc21)c1cc(O)ncn1 (centres unmarked) when tested on Hsp82 (Saccharomyces cerevisiae).
Reply text: 5.00 to 6.00

###

- TARGET SYSTEM: Hsp82 (Saccharomyces cerevisiae)
- METHOD: PK/LDH enzyme coupling test of the ATPase activity of Hsp82 (NADH decrease at 340 nm)
- Type: biochemical
- COND: 1 μM Hsp82, 250 μM ATP, 37° C., pyruvate kinase/lactate dehydrogenase coupling, read-out: Hsp82 ATPase IC50
ASSAY METRIC: IC50

Some solved cases for reference:
COMPOUND: CC(C)(C)OC(=O)N[C@H](CC(N)=O)C(=O)NC1c2ccccc2-c2c(-c3nc4cnccc4[nH]3)cccc21 (stereo partly drawn)
IC50: 1 to 10 µM
--
COMPOUND: O=C(OC1c2ccccc2-c2c(-c3nc4ccncc4[nH]3)cccc21)c1cccc2ncccc12 (racemic)
IC50: 1 to 10 µM
--
COMPOUND: O=C(NC1c2ccccc2-c2c(-c3nc4ccncc4[nH]3)cccc21)c1ccc2cc[nH]c2c1 (racemic)
IC50: 1 to 10 µM
--
COMPOUND: O=C(NC1c2ccccc2-c2c(-c3nc4ccncc4[nH]3)cccc21)c1cc(-c2ccco2)nc2ccccc12 (racemic)
IC50: 1 to 10 µM

Inquiry: Supply recorded IC50 for O=C(NCc1ccc(F)cc1)NC1c2ccccc2-c2c(-c3nc4ccncc4[nH]3)cccc21 (racemic) here.
Reply text: 10 to 100 µM

Inquiry: Supply recorded IC50 for `O/N=C1\c2ccccc2-c2c1cccc2-c1nc2cnccc2[nH]1` here.
Reply text: 1 to 10 µM

Inquiry: Supply recorded IC50 for O=C(NC1c2ccccc2-c2c(-c3nc4ccncc4[nH]3)cccc21)c1cc(N2CCCCC2)nc2ccccc12 (racemic) here.
Reply text: 1 to 10 µM

Inquiry: Supply recorded IC50 for O=C(NC1c2ccccc2-c2c(-c3nc4ccncc4[nH]3)cccc21)c1cc(O)nc2ccccc12 (racemic) here.
Reply text: 1 to 10 µM

Inquiry: Supply recorded IC50 for O=C(NC1c2ccccc2-c2c(-c3nc4ccncc4[nH]3)cccc21)c1cccc2[nH]ncc12 (racemic) here.
Reply text: < 1 µM

Inquiry: Supply recorded IC50 for O=C(NCc1ccco1)NC1c2ccccc2-c2c(-c3nc4ccncc4[nH]3)cccc21 (racemic) here.
Reply text: 10 to 100 µM

Inquiry: Supply recorded IC50 for O=C(NC1c2ccccc2-c2c(-c3nc4ccncc4[nH]3)cccc21)c1cccc2cnccc12 (racemic) here.
Reply text: 10 to 100 µM

Inquiry: Supply recorded IC50 for O=C(NC1c2ccccc2-c2c(-c3nc4ccncc4[nH]3)cccc21)c1ccnc2ncccc12 (racemic) here.
Reply text: 1 to 10 µM

Inquiry: Supply recorded IC50 for O=C(OC1c2ccccc2-c2c(-c3nc4ccncc4[nH]3)cccc21)c1ccncc1 (racemic) here.
Reply text: < 1 µM

Inquiry: Supply recorded IC50 for c1ccc(CCNC2c3ccccc3-c3c(-c4nc5cnccc5[nH]4)cccc32)cc1 (racemic) here.
Reply text: 10 to 100 µM

Inquiry: Supply recorded IC50 for Cc1noc(C)c1NC(=O)NC1c2ccccc2-c2c(-c3nc4ccncc4[nH]3)cccc21 (racemic) here.
Reply text: 10 to 100 µM

Origin of values: patent US7674795B2
